Test system: COLO 205 colon
Assay: NCI-60 one-dose screen, 48 h
Conditions: 10 µM unless noted
Compounds without any hit were thinned out: in the full panel of roughly 83,000, 20% have a hit. Active and inactive are the calls of the source. The calls were made as follows: active = growth percent below 10; inactive = the rest.
Labels: true (1) = active, false (0) = inactive

| molecule | assay.target | class.name |
| --- | --- | --- |
| COc1ccc(Nc2cc(C)nc(N3CCN(c4ccnc5cc(Cl)ccc45)CC3)n2)cc1 | COLO 205 colon | true (1) |
| CNC(=O)c1cc(Oc2ccc(NC(=O)Nc3ccc(Cl)c(SC)c3)c(F)c2)ccn1 | COLO 205 colon | false (0) |
| COc1ccc(CN2c3ccccc3Oc3ccccc32)cc1O | COLO 205 colon | false (0) |
| COc1ccc(/C=C(\C#N)C(=O)Nc2cccc(Nc3nc(SC)nc(-c4cccc([N+](=O)[O-])c4)c3C#N)c2)cc1OC | COLO 205 colon | false (0) |
| COc1ccc(-n2nc(C)c3c(Nc4ccc(NC(=O)Nc5cccc(C(F)(F)F)c5)cc4)ncnc32)cc1 | COLO 205 colon | true (1) |
| CON1C(=O)CC[C@]2(C)[C@H]3CC[C@@H]4C([C@@]5(C)CCC(=O)O5)CC[C@@]4(C)[C@]3(C)CC[C@H]2C1(C)C (stereo partly drawn) | COLO 205 colon | false (0) |
| COc1cc(-c2nn(-c3ccc(C)cc3)cc2C(=O)O)ccc1O | COLO 205 colon | false (0) |
| CC1=CC(=NN=c2cc(C)n([O-])c(C)c2)C=C(C)[N+]1=O | COLO 205 colon | false (0) |
| Nc1n[nH]c2cc(F)c([C@@H]3Nc4ccc5[nH]ncc5c4[C@H]4C5CCC(C5)[C@@H]34)cc12 (stereo partly drawn) | COLO 205 colon | true (1) |
| CCOC(=O)c1c(C)oc2ncnc(N3CCN(C(=O)COc4ccc(SC)cc4)CC3)c12 | COLO 205 colon | false (0) |
| COc1ccc2c(c1)CC/C(=C\c1cncc(Br)c1)C2=O | COLO 205 colon | false (0) |
| CC(C)CC1C(=O)N2CCC[C@H]2C2(O)O[C@](NC(=O)C3C=C4c5cccc6[nH]c(Br)c(c56)C[C@H]4N(C)C3)(C(C)C)C(=O)N12 (stereo partly drawn) | COLO 205 colon | false (0) |
| O=C(Cc1ccccc1Nc1c(Cl)cccc1Cl)NN1C(=O)/C(=C/c2ccc(Br)cc2)SC1=S | COLO 205 colon | false (0) |
| C=C1C(=O)O[C@H]2[C@H]1CC/C(COC(=O)c1cc3cc(OC)ccc3[nH]1)=C\CC[C@@]1(C)O[C@@H]21 | COLO 205 colon | true (1) |
| C=CC(=O)Nc1cccc(-c2nc(SC)nc(NCc3ccccc3)c2C#N)c1 | COLO 205 colon | false (0) |
| Cc1cc(N2CCCCC2)nc(NC2CCCC(Nc3ccnc4cc(Cl)ccc34)C2)n1 (stereo not drawn) | COLO 205 colon | true (1) |
| CCOc1nc(-c2ccccc2)cc2c(O)c(C(=O)O)[nH]c(=O)c12 | COLO 205 colon | false (0) |
| COC[C@H](C)n1c(C2CCOCC2)nc2cnc3cc(-c4c(C)noc4C)c(OC)cc3c21 | COLO 205 colon | false (0) |

----------
Tested on: COLO 205 colon
Experiment: NCI-60 one-dose screen, 48 h (100 = growth as untreated, 0 = no growth, -100 = all killed)
Conditions: 10 µM unless noted
Compounds without any hit were thinned out: in the full panel of roughly 83,000, 20% have a hit.

| molecule | unit.abbreviation | growth |
| --- | --- | --- |
| COc1ccc(C(=O)/C=C/c2cccnc2Nc2cc(OC)c(OC)c(OC)c2)cc1 | % | 38.6 |
| COC(=O)c1ccc(Cn2cnc3c(N)ncnc32)cc1 | % | 109 |
| CCOc1cc2ncc(C#N)c(Nc3ccc(OCc4cccc(F)c4)c(Cl)c3)c2cc1NC(=O)CCCCC1CCSS1 (stereo not drawn) | % | 103 |
| COc1ccc(C2Nc3c(c(C(C)(C)C)nn3-c3ccccc3)C(=O)CS2)cc1 (stereo not drawn) | % | 103 |
| COc1ccc(C(=O)COc2ccc(/C=C3\Oc4ccc(OC)cc4C3=O)cc2)cc1 | % | 128 |
| COCCNc1ccc2c3c(cccc13)C(=O)N(CCN(C)C)C2=O | % | 6.86 |
| O=C1c2cccc3cccc(c23)C(=O)N1CCCCN1CCN(CCCCOc2ccc(-c3nc4ccc(N5CCOCC5)cc4[nH]3)cc2)CC1 | % | 93.9 |
| C=C(C)[C@@H]1CC[C@]2(C(=O)OC)CC[C@]3(C)[C@H](CC[C@@H]4[C@@]5(C)C/C(=C/c6ccc(OC)cc6)C(=O)C(C)(C)[C@@H]5CC[C@]43C)[C@@H]12 | % | 94.4 |

----------
Test system: KM12 colon
Assay: NCI-60 one-dose screen, 48 h
Details: 10 µM unless noted
The panel holds about 83,000 compounds, 20% with a hit somewhere; the sample as a whole holds those more often. Calls of active or inactive are those of the source. How the source made its calls: active means growth percent below 10; inactive means the rest.
Labels: 1.0 for active, 0.0 for inactive

| compound | class.name |
| --- | --- |
| NC(=NC1C2CC3CC(C2)CC1C3)Nc1ccc(I)cc1 (stereo not given) | 0.0 |
| Cn1nc(N)c2cc([C@@H]3Nc4ccc5[nH]ncc5c4[C@H]4C5CCC(C5)[C@@H]34)ccc21 (stereo not given in full) | 0.0 |
| COc1ccc(S(=O)(=O)N2CCCCCC2)cc1NC(=O)c1[nH]c(C)c2c1CCCCC2=O | 0.0 |
| OCCNc1nccc(N2CCN(c3ccnc4cc(Cl)ccc34)CC2)n1 | 0.0 |
| CNC(=O)c1cc(Oc2ccc(NC(=O)Nc3ccc(Cl)c(OC(F)(F)F)c3)c(F)c2)ccn1 | 0.0 |
| Cc1nn(-c2ccc(F)cc2)c2ncnc(Oc3ccc(NC(=O)Nc4ccc(Cl)c(C(F)(F)F)c4)cc3)c12 | 0.0 |
| Cn1c(O)c(N=NC(=O)c2cc(-c3ccccc3)on2)c2ccccc21 | 0.0 |
| O=C(Oc1cccnc1)c1ccsc1Nc1ccnc(C(F)(F)F)c1 | 0.0 |
| NS(=O)(=O)c1ccc(CN=C2NC(=O)S/C2=C\c2ccc(Br)cc2)cc1 | 0.0 |
| COc1ccc(/C=C/c2nc(-c3n[nH]c(=O)n3-c3ccccc3)c3ccccc3n2)cc1 | 0.0 |
| COc1ccc(-c2nc3ccc(-c4nc5ccc(N6CCN(c7ccccc7)CC6)cc5[nH]4)cc3[nH]2)cc1OC | 1.0 |
| CCN(CC)CCCCNc1c2ccc(Cl)cc2nc2ccc(OC)cc12 | 1.0 |
| CC1=C[C@H]2c3c(c(O)c(O)c4oc(-c5ccccc5)cc(=O)c34)[C@H](c3cc(O)c(O)c4oc(-c5ccccc5)cc(=O)c34)[C@H]2C(C)(C)C1 | 1.0 |
| COc1ccc(SC2c3cc(OC)c(OC)cc3Oc3nc(N)c(C#N)c(N)c32)cc1 (stereo not given) | 1.0 |
| Oc1cccc(-c2nc(N3CCOCC3)c3c4c(sc3n2)CCCC4)c1 | 0.0 |
| COc1ccc(CN2c3ccccc3Sc3ccccc32)cc1O | 0.0 |
| CC(=O)Oc1ccc(Cl)cc1CN(C(C)=O)C1CCCCC1 | 0.0 |
| NC(=O)c1cc(Br)ccc1NC(=O)/C=C/c1ccccc1 | 0.0 |
| Cc1cc(Nc2ccc(C)c(Cl)c2)n2nc(C(F)(F)F)nc2n1 | 0.0 |
| O=C(N=Nc1c(O)[nH]c2ccc(Br)cc12)c1cc(-c2ccccc2)on1 | 0.0 |

----------
Tested on: OVCAR-3 ovarian
Test: NCI-60 one-dose screen, 48 h
Conditions: 10 µM unless noted
Compounds without any hit were thinned out: in the full panel of roughly 83,000, 20% have a hit. Active and inactive are the calls of the source. Rule for the calls: active = growth percent below 10; inactive = the rest.
Labels: TRUE for active, FALSE for inactive

| compound | class.name |
| --- | --- |
| C=CCSSC1N=CNc2nc[nH]c21 (centres undefined) | FALSE |
| CCOC(=O)C(C)(C#N)C1C=CCCC1 (centres undefined) | FALSE |
| COc1cc(-c2nc3ccccc3[nH]2)ccc1OCc1nnc(-c2ccc(CC(C)C)cc2)o1 | FALSE |
| COc1ccc2c(c1)C(=O)/C(=C/c1cccnc1)CC2 | FALSE |
| COc1cc2nc(N3CCCC3)nc(Nc3ccccc3)c2cc1OC | TRUE |
| CCn1c(O)c(/C=N/NC(=O)C(C)c2ccc(CC(C)C)cc2)sc1=S (centres undefined) | TRUE |
| CC1=C[C@H]2c3c(c(O)c(O)c4oc5ccccc5c(=O)c34)[C@H](c3cc(O)c(O)c4oc5ccccc5c(=O)c34)[C@H]2C(C)(C)C1 | FALSE |
| COc1cc(Nc2cc(C)nc(N3CCN(c4ccnc5cc(Cl)ccc45)CC3)n2)cc(OC)c1 | TRUE |
| C#Cc1cccc(NC(=O)c2ccccc2NC(=O)C=C)c1 | FALSE |
| NNCCc1ccc(NC(=O)CCCc2ccc(/C=C/C(=O)NO)cc2)cc1 | FALSE |
| COc1ccc2c(c1)c(-c1nonc1-c1cn(C)c3ccccc13)cn2C | TRUE |
| CC(=O)O[C@H]1CC[C@]2(C)[C@H]3CC=C4[C@@H]5CC(C)(C)CC[C@]5(C(=O)NCCNCCNCCN)CC[C@@]4(C)[C@]3(C)CC[C@H]2C1(C)C | TRUE |
| N#C/C(=C\c1ccc(-c2cc(C(F)(F)F)ccc2Cl)o1)c1nc(-c2ccco2)cs1 | FALSE |
| CSc1nc(Nc2cccc(NC(=O)/C(C#N)=C/c3c(Cl)cccc3Cl)c2)c(C#N)c(-c2cccc([N+](=O)[O-])c2)n1 | FALSE |
| Cn1c(NCCc2ccc(O)c(O)c2)nc2c1c(=O)n(Cc1ccc(Br)cc1)c(=O)n2C | FALSE |
| C#CC(F)(F)[C@]1(O)CC[C@H]2[C@@H]3CCC4=CC(=O)CCC4=C3[C@@H](c3ccc(C4CC4)cc3)C[C@@]21C | TRUE |
| COc1ccc(/C=C\c2cc(OC)c(OC)c(OC)c2)cc1OCC(=O)Nc1ccc2nc(C)sc2c1 | FALSE |
| COc1ccc(-n2nc(C)c3c(Nc4ccc(NC(=O)Nc5c(Cl)cccc5Cl)cc4)ncnc32)cc1 | FALSE |
| C=CC(=O)Nc1cccc(-c2nc(SC)nc(Nc3ccccc3OC)c2C#N)c1 | FALSE |
| CC(=O)c1cc2c(N)c(C(=O)Nc3cccc(F)c3C)sc2nc1C | FALSE |
| COc1ccc(-c2cc(Nc3ccnc(N4CCOCC4)n3)on2)cc1 | TRUE |
| CCOc1cc2c(cc1OCC)C(c1cc(OC)c(O)cc1Cl)NCC2 (centres undefined) | FALSE |
| CCOC(=O)c1c(C)oc2ncnc(N3CCN(C(=S)Nc4ccccc4)CC3)c12 | FALSE |
| CC(C)(CCCN=C(N)Nc1ccc(Cl)cc1)c1ccc(F)cc1 | FALSE |
| Cc1ccc(NC(=O)C2CCC(CN3CCN(C)CC3)CC2)cc1Nc1nccc(-c2cccnc2)n1 (centres undefined) | FALSE |
| CCOC(=O)n1cc(-c2nonc2-c2cn(C)c3ncccc23)c2ccccc21 | FALSE |
| N#C/C(=C\c1ccc(-c2ccc(Cl)c(Cl)c2)o1)c1nc(-c2ccco2)cs1 | FALSE |
| CC(=O)Nc1ccc(-n2c(O)c(/C=N/NC(=O)Cc3ccccc3Nc3c(Cl)cccc3Cl)sc2=S)cc1 | FALSE |
| O=C1OC(c2ccccc2)C(O)=C1c1ccccc1 (centres undefined) | FALSE |
| Cc1cc2nc3[nH]c4ccccc4c3nc2cc1C | FALSE |
| COc1cc(/C=C/C(=O)c2cccnc2Nc2ccc(F)cc2)cc(OC)c1OC | FALSE |
| Cc1cc(N2CCSCC2)nc(NC2CCCC(Nc3ccnc4cc(Cl)ccc34)C2)n1 (centres undefined) | TRUE |
| CSc1ccc(-c2ccccc(=O)c2O)cc1 | FALSE |
| CCCCN1CCCn2c1nc1c2c(=O)n(CCC)c(=O)n1CCC | FALSE |
| O=[N+]([O-])c1ccc(Nc2nc(NCCN3CCOCC3)ncc2[N+](=O)[O-])cc1 | FALSE |
| Oc1cccc2ccc(N/N=C/c3cc(CN4CCOCC4)c(O)c4ncccc34)nc12 | FALSE |
| N#Cc1c(-c2ccc(Cl)cc2)nc(N=Nc2c(O)[nH]c3ccc(Cl)cc23)nc1N1CCOCC1 | FALSE |
| O=C1c2cccc3cccc(c23)C(=O)N1CCCCCN1CCN(CCCCCOc2ccc(-c3nc4ccc(N5CCOCC5)cc4[nH]3)cc2)CC1 | FALSE |
| CN1CCN(Cc2ccc(NC(=O)c3cncc(C#Cc4cncn5ccnc45)c3)cc2C(F)(F)F)CC1 | FALSE |
